Source listed as paper PMC3246456.

Recorded measurements of inhibition, one per entry
test system: anti-DBP MAb; test: Hapten coated icELISA (DBAP directly linked to polystyrene); format: binding, mouse; conditions: at 10 mg/mL; hapten coated icELISA

COMPOUND | TESTED TARGET | inhibition (% inhibition at 10 mg/mL)
COC(=O)c1ccccc1C(=O)OC [DMP, dimethyl phthalate] | anti-DBP MAb | 7.98
CCCCC(CC)COC(=O)c1ccccc1C(=O)OCC(CC)CCCC (stereo not shown) [DEHP, di(2-ethylhexyl) phthalate] | anti-DBP MAb | 1.12
CCOC(=O)c1ccccc1C(=O)OCC [DEP, diethyl phthalate] | anti-DBP MAb | 5.08
CCCCCCCCOC(=O)c1ccccc1C(=O)OCCCCCCCC [DOP, di(n-octyl) phthalate] | anti-DBP MAb | 1.15
